Values compiled from the supplement of paper PMC7125110.

B1: glmS ribozyme (parent)
chain: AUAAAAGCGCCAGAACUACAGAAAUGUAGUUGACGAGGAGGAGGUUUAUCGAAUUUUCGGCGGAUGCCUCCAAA

- Variants of: B1
- measurement description: self-cleavage kobs at 640 uM GlcN6P; higher = faster cleavage; RNA array
- applied conditions: with glucosamine-6-phosphate
This sample holds only a part of the variants without activity.
outcome measure: self-cleavage kobs at 640 uM GlcN6P

Below is a list of variants. For each, state its recorded self-cleavage kobs at 640 uM GlcN6P.
1. AUAAAAGCGCCAGAAAUACAGAAAUGUAGUUGACGAUGAGGAUGUUUAUCGAAUUUCCGGCGGAUGCCUCCAAA [C16A G37U G43U U57C]
2. AUAAACGCGCCCGAACUACAGAAAUGUAGUUGACGCGGAGGAAGUUUAUCUAAUUUUCGGCGGAUGCCUGCAAA [A6C A12C A36C G43A G51U C70G]
3. AUAAAAGCGCCAGAACUACAGAAAUGUAGUUGACGAGGAGGAGUUUUGUCGAAUUUUCGGCGGAUGCCUCCAAA [G44U A48G]
4. AUAAAAGCGCCAGAACUACAGAAAUGUAGUUGACGAGGAGAAGUUUUAUCGAAUUUUCGGCGGAUGCCUACAAA [G41A G44U C70A]
5. AUAAAAGCGCCAGAACUACAGAAAUGUAGUUGACGAGGAGUAGGUUUAUCGAAUUUUCGGCGAAUGCCUCCAAA [G41U G63A]
6. AUAAAAGCGCCAGAACUACAGAAAUGUAGUUAACGAGGAGGAGGUUUAUCGAAUUUUCGGCGGAUUCCUCCAAA [G32A G66U]
7. AUAAAAGCGCCAGAACUACAGAAAUGUAGUUGAAGAGGAGGAGGGUUAUCGAAUUUUCGGCGGAUUCCGCCAAA [C34A U45G G66U U69G]
8. AUAAAAGGGCCAUAACUACAGAAAUGUAGUUGACGAGGAGGAGGUUUAUCGAAUUUUCGGCGGAUGCCUCCAAA [C8G G13U]

["< 1e-05 s⁻¹", "< 1e-05 s⁻¹", "< 1e-05 s⁻¹", "< 1e-05 s⁻¹", "< 1e-05 s⁻¹", "4.96e-05 s⁻¹", "< 1e-05 s⁻¹", "< 1e-05 s⁻¹"]

Go through the list and state self-cleavage kobs at 640 uM GlcN6P for each entry.
1. AUAAAAGCGCCAGAACUACAGAAAUGUAGUUGACGAGGAGGAGGUUUAUGGAAUUGUCGGAGGAUGCCUCCAAA [C50G U56G C61A]
2. AUAAAAGCGCUAGAACUACAGAAAUGUAGUUGACGAGGAGGAGGUUUAUCGAAGUUUAGGCGGAUGGCUCCAAA [C11U U54G C58A C67G]
3. AUAAAAUUGCCGGAACUACAGAAAUGUAGUUGACGAGGAGGAGGUUUAUCCAAUUUUCGGUGGAUGCCUCCAAA [G7U C8U A12G G51C C61U]
4. AUAAAAGCGCGCGAACUACAGAAAUGUAGUUGACGAGGAGGAGGUUUAUCGAAUUUUCGGCGGAUGCCUUCAAA [C11G A12C C70U]
5. AUAAAACUGCCAGAACUACAGAAAUGUAGUUGACGAGGAGGAGGUUUAUCGAAUUUUCGGCGGAUGCCUCCAAA [G7C C8U]
6. AUAAAAGCGCCAGAACUACAGAAAUGUAGUUGACGAGGAGGAGGUUUAUAGAAUUUUCGGGGGAUGCUUCCAAA [C50A C61G C68U]

1: 0.000426 s⁻¹; 2: 0.000225 s⁻¹; 3: < 1e-05 s⁻¹; 4: 6.11e-05 s⁻¹; 5: < 1e-05 s⁻¹; 6: 8.62e-05 s⁻¹

For each listed entry, give its self-cleavage kobs at 640 uM GlcN6P.
1. AUAAAAGCGCCAGAACUACAGAAAUGUAGUUGACGAAGAGGAGGUUUAUCGAAUUUUCGGUGGAUGCCUCCAAA [G37A C61U]
2. AUAAAAGCGCCAGAACUACAGAAAUGUAGUUGACGAGGAGGAUGUUUAUCGAAUUUUCGGCGGAUGGCUACAAA [G43U C67G C70A]

1: < 1e-05 s⁻¹; 2: < 1e-05 s⁻¹
